B1: POU domain, class 2, transcription factor 1, residues 285 to 354; numbered along this chain, P14859 (parent)
chain: LEELEQFAKTFKQRRIKLGFTQGDVGLAMGKLYGNDFSQTTISRFEALNLSFKNMCKLKPLLEKWLNDAE

variants of: B1; assay: abundance fitness (aPCA) (normalised: wild type 0, dead -1); higher = more abundant; growth selection in yeast, the domain comes from the species named; settings: Homo sapiens
Grouping by measured abundance fitness is done with the following cut points: bottom: < -0.08; middle: ≥ -0.08 and < -0.03; top: ≥ -0.03

Past entries and their recorded results:
A8V top
S38R middle
M55G middle
F20E bottom
D24A middle
S43E top

query: Assign a bin to G26E
result: top

query: Assign a bin to G26V
result: top

All figures here come from the Human Domainome abundance scans (Beltran et al. 2025).
